# Measurement Protocol: LD50 (acute toxicity)
# Condition Parameters: rat, in vivo; printed after the oral four-day ulcerogenicity study in female Lewis rats
Measure: LD50

get_value(item= CC(C)(C)c1cc(N2CCCC2=O)cc(C(C)(C)C)c1O [Example 1] , readout=LD50) returns > 1000 mg/kg

meta.source: patent US4959482A
